Data origin, for the record: the RNAGym collection of RNA variant scans (doi:10.7554/elife.80360)

self-cleavage listing for selected variants.
B1: Hairpin Ribozyme (parent)
chain: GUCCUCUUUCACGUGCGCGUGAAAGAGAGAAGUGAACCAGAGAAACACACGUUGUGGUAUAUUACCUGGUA

- Variants of: B1
- experiment_notes: self-cleavage, relative activity (ratio to wild type); higher = more cleavage; co-transcriptional
Lab note: jot down the number only; don't add units.

Worked examples, 5 variants total:
G21A G56U ... 0.185
G40A A59U ... 0.136
A28U G42A ... 0.167
U2A G25A ... 0.259
G1A U14C ... 0.166

Query :: GET /values?readout=self-cleavage&item= A64G G68U
Result :: 0.19

Query :: GET /values?readout=self-cleavage&item= C12U A31C
Result :: 0.204

Query :: GET /values?readout=self-cleavage&item= A64C C66U
Result :: 0.27

Query :: GET /values?readout=self-cleavage&item= U52G U67C
Result :: 0.203

Query :: GET /values?readout=self-cleavage&item= G15C A61U
Result :: 0.181

Query :: GET /values?readout=self-cleavage&item= G34C A49G
Result :: 1.42

Query :: GET /values?readout=self-cleavage&item= A41C A49U
Result :: 0.0586

Query :: GET /values?readout=self-cleavage&item= G25C A30C
Result :: 0.21
